experimentalTarget: α3β4 nicotinic receptor subtype (Homo sapiens, UniProt P30926+P32297)
Construct: SH-SYSY cells predominantly express the α3β4 nicotinic receptor subtype; endogenous in cells; host or cells: SH-SYSY (SH-SY5Y) cells
Sequence (P32297 32-505): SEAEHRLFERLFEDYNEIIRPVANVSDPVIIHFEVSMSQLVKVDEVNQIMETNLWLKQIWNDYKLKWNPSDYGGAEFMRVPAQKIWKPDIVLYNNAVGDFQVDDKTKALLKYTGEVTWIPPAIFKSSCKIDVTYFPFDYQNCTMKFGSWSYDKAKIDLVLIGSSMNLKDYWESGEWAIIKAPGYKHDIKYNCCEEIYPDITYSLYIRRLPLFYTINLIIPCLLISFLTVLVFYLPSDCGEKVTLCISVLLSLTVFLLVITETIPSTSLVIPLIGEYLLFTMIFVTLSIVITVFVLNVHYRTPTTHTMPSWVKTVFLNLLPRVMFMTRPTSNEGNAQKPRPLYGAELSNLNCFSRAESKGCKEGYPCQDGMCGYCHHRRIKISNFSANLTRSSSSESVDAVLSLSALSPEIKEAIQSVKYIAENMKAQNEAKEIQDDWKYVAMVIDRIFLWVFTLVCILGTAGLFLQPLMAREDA
Sequence (P30926 22-498): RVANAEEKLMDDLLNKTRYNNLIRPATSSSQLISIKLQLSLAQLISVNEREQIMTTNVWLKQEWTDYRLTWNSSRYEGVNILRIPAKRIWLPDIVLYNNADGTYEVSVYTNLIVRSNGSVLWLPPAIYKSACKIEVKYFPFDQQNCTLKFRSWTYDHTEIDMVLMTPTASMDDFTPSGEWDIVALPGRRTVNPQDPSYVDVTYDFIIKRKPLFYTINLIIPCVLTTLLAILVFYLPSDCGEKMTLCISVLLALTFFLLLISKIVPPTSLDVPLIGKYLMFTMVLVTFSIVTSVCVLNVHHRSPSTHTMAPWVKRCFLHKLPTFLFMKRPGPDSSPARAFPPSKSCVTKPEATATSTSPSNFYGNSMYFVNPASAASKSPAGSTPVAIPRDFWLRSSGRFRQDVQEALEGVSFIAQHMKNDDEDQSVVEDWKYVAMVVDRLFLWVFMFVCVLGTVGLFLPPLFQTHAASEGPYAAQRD
methodSummary: cell-based
assayConditions: Caliper; read-out: IC50 (uM) Caliper, inhibition of epibatidine-induced calcium response
experimentalReadout: IC50 (µM)

COCC[C@H]1CC2CN3CCc4c([nH]c5ccccc45)[C@](C(=O)OC)(C2)[C@H]13 | 3.9

###

experimentalTarget: a3b4 nAChRs (Homo sapiens, UniProt P30926+P32297)
Sequence (P30926 22-498): as above
Sequence (P32297 32-505): as the sequence (P32297 32-505) above
methodSummary: FLIPR Ca+2 flux assay, epibatidine-induced calcium response, SH-SYSY cells
Assay type: cell-based
Method: The HEK293 (a3b4, a4b2 and a7) and SH-SYSY cell lines (a3b4) expressing nAChRs are used. Validated assays optimized with respect to sensitivity, dynamic range, signal intensity and stability for chemical probe validation and SAR refinement are used. Nicotinic functional assays are performed using the Molecular Devices FLIPR® Calcium 5 Assay Kit. […] The RFU (relative fluorescence units) in the presence of the test or reference compounds is then expressed on the percent scale. […]
experimentalReadout: IC50 (nM)

CC[C@H]1CC2C[C@H]3c4[nH]c5ccc(O)cc5c4CCN(C2)C13 [Noribogaine, 12-hydroxyibogamine] | 300

###

experimentalTarget: a3b4 nAChRs (Homo sapiens, UniProt P30926+P32297)
methodSummary: Relative potency on epibatidine-induced calcium response at a3b4 nAChRs
Type: cell-based
assayConditions: reference value for the ratios of Table 4; read-out: Potency of 18-MC at a3b4 nAChRs taken as reference
pIC50: −log10 of the molar value.
experimentalReadout: pIC50

COCC[C@H]1CC2CN3CCc4c([nH]c5ccccc45)[C@](C(=O)OC)(C2)[C@H]13 | 5.40

###

experimentalTarget: α3β4 nicotinic receptor subtype (Homo sapiens, UniProt P30926+P32297)
Construct: SH-SYSY cells predominantly express the α3β4 nicotinic receptor subtype; endogenous in cells; host or cells: SH-SYSY (SH-SY5Y) cells
methodSummary: cell-based
assayConditions: SH-SYSY cells, preliminary studies by Caliper Life Sciences; read-out: IC50 as antagonist for epibatine induced Ca+2 flux
experimentalReadout: IC50 (µM)

COCC[C@H]1CC2CN3CCc4c([nH]c5ccccc45)[C@](C(=O)OC)(C2)[C@H]13 | 3.89
